Data origin, for the record: patent US20250120967A1

target: ABL1 (Homo sapiens); assay: Tyrosine kinase inhibition assay; format: biochemical; conditions: single concentration 1.0 μM, read-out: percent inhibition
OBSERVABLE: inhibition at 1 µM (%)
# output: bare number, implied unit %

Need inhibition at 1 µM of `COc1cc2nccc(Oc3ccc(NC(=O)C4(NC(=O)c5ccc(F)cc5)CC4)cc3F)c2cc1Oc1c(F)cc(N)cc1F` , thanks. 44

Thanks! And `COc1cc2nccc(Oc3ccc(NC(=O)C4(NC(=O)c5ccc(F)cc5)CC4)cc3F)c2cc1OC` ? 24

Now give it for `COc1cc2nccc(Oc3ccc(NC(=O)C4(NC(=O)c5ccc(F)cc5)CC4)cc3F)c2cc1Oc1ccc(N)cc1F` too. 32

Further, for `COc1cc2nccc(Oc3ccc(NC(=O)C4(C(=O)Nc5ccc(F)cc5)CC4)cc3F)c2cc1Oc1ccc(N)cc1F` ? 58

====

biological target: PIK3C2A (PI3K-C2 alpha) (Homo sapiens); assay: Tyrosine kinase inhibition assay; assay type: biochemical; details: single concentration 1.0 μM, read-out: percent inhibition
OBSERVABLE: inhibition at 1 µM (%)
Response body: numeric value in %, unit text excluded.

So what's the measured inhibition at 1 µM for this one? `COc1cc2nccc(Oc3ccc(NC(=O)C4(NC(=O)c5ccc(F)cc5)CC4)cc3F)c2cc1Oc1ccc(N)cc1F` -1

Try this compound next: COc1cc2nccc(Oc3ccc(NC(=O)C4(C(=O)Nc5ccc(F)cc5)CC4)cc3)c2cc1OC [Cabozantinib, reference compound] 1

# repeat for `COc1cc2nccc(Oc3ccc(NC(=O)C4(NC(=O)c5ccc(F)cc5)CC4)cc3F)c2cc1Oc1c(F)cc(N)cc1F` 1

Input `COc1cc2nccc(Oc3ccc(NC(=O)C4(NC(=O)c5ccc(F)cc5)CC4)cc3F)c2cc1OC` 1

Try this compound next: `COc1cc2nccc(Oc3ccc(NC(=O)C4(C(=O)Nc5ccc(F)cc5)CC4)cc3F)c2cc1Oc1ccc(N)cc1F` -9

====

biological target: EPHA7 (Homo sapiens, UniProt Q15375); test: Tyrosine kinase inhibition assay; format: biochemical; settings: single concentration 1.0 μM, read-out: percent inhibition
Sequence (Q15375 28-998): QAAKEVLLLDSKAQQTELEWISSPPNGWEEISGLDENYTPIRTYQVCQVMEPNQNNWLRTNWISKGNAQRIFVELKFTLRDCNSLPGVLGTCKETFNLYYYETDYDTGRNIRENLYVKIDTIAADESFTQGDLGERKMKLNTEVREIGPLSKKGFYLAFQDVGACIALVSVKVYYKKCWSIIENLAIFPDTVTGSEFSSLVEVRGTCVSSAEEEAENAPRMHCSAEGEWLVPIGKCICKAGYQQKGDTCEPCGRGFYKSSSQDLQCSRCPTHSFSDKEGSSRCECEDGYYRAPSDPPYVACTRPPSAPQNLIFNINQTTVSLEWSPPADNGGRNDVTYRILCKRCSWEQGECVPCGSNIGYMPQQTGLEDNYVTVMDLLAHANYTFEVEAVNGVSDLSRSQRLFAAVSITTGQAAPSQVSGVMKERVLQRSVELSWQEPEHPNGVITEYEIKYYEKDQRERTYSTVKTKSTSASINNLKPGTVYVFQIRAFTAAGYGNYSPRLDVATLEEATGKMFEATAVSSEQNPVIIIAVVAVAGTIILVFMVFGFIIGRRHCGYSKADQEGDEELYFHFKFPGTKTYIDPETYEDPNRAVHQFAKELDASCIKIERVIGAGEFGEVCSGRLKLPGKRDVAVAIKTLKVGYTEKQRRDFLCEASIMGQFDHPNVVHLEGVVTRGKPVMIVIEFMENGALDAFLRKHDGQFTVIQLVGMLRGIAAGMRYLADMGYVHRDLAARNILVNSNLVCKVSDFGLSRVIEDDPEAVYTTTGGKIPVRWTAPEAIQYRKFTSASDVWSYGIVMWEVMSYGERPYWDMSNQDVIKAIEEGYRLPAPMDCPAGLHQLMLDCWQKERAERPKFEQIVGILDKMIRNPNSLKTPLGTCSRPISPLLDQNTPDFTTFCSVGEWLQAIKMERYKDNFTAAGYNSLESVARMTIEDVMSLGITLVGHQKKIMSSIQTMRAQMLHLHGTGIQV
OBSERVABLE: inhibition at 1 µM
Provide the measurement as a number trailed by its unit.

# query: inhibition at 1 µM of entry COc1cc2nccc(Oc3ccc(NC(=O)C4(NC(=O)c5ccc(F)cc5)CC4)cc3F)c2cc1Oc1c(F)cc(N)cc1F [Cbo-14] 101%

Follow-up entry: COc1cc2nccc(Oc3ccc(NC(=O)C4(NC(=O)c5ccc(F)cc5)CC4)cc3F)c2cc1Oc1ccc(N)cc1F [Cbo-10] 98%

Same for COc1cc2nccc(Oc3ccc(NC(=O)C4(C(=O)Nc5ccc(F)cc5)CC4)cc3F)c2cc1Oc1ccc(N)cc1F [Cbo-23] 100%

Also, COc1cc2nccc(Oc3ccc(NC(=O)C4(NC(=O)c5ccc(F)cc5)CC4)cc3F)c2cc1OC [Cbo-02] please. 84%

Quick one: COc1cc2nccc(Oc3ccc(NC(=O)C4(C(=O)Nc5ccc(F)cc5)CC4)cc3)c2cc1OC [Cabozantinib, reference compound] 106%

====

target: UniProtKB P07949; experiment: Tyrosine kinase inhibition assay; format: biochemical; settings: single concentration 1.0 μM, read-out: percent inhibition
Sequence (P07949 29-1114): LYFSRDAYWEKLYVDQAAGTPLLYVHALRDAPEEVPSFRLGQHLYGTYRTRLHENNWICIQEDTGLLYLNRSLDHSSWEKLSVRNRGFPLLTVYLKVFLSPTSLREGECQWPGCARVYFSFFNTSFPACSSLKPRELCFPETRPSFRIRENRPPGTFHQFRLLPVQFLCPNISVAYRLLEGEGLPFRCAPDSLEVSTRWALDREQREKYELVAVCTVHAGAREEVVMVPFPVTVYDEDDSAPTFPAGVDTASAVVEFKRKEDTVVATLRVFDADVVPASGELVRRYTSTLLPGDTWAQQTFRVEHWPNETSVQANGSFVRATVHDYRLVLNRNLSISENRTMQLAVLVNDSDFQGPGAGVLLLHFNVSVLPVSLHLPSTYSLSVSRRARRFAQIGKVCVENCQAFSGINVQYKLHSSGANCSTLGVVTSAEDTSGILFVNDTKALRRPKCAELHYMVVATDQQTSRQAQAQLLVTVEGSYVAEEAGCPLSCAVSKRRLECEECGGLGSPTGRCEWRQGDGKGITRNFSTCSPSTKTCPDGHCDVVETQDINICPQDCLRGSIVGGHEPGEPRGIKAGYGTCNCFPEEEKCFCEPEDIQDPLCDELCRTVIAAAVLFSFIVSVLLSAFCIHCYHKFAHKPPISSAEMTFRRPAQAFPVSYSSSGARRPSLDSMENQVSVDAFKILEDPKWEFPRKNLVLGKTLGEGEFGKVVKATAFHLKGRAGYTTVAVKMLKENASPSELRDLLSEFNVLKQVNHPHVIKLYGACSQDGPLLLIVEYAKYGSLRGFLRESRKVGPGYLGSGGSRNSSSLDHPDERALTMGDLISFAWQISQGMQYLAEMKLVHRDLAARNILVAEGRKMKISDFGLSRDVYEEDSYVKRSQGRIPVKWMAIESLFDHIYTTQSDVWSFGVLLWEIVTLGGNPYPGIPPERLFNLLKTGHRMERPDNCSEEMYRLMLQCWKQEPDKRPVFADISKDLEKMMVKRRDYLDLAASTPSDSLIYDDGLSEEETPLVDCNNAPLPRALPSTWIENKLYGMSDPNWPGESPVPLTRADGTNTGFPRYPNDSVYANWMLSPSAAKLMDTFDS
OBSERVABLE: inhibition at 1 µM (%)
Entry rule: numbers only, all in %.

Return inhibition at 1 µM measured with UniProtKB P07949 given this compound: `COc1cc2nccc(Oc3ccc(NC(=O)C4(NC(=O)c5ccc(F)cc5)CC4)cc3F)c2cc1Oc1ccc(N)cc1F` 79

Further, for `COc1cc2nccc(Oc3ccc(NC(=O)C4(NC(=O)c5ccc(F)cc5)CC4)cc3F)c2cc1OC` ? 67

Repeat for the following compound: `COc1cc2nccc(Oc3ccc(NC(=O)C4(NC(=O)c5ccc(F)cc5)CC4)cc3F)c2cc1Oc1c(F)cc(N)cc1F` 89

Can you check `COc1cc2nccc(Oc3ccc(NC(=O)C4(C(=O)Nc5ccc(F)cc5)CC4)cc3F)c2cc1Oc1ccc(N)cc1F` next? 101

Ok, now COc1cc2nccc(Oc3ccc(NC(=O)C4(C(=O)Nc5ccc(F)cc5)CC4)cc3)c2cc1OC [Cabozantinib, reference compound] 98

====

molecular target: MERTK (cMER) (Homo sapiens, UniProt Q12866); assay: Tyrosine kinase inhibition assay; assay type: biochemical; details: single concentration 1.0 μM, read-out: percent inhibition
OBSERVABLE: inhibition at 1 µM (%)
Numbers only; they are read as %.

Find the recorded inhibition at 1 µM belonging to `COc1cc2nccc(Oc3ccc(NC(=O)C4(NC(=O)c5ccc(F)cc5)CC4)cc3F)c2cc1Oc1c(F)cc(N)cc1F` and report it. 97

`COc1cc2nccc(Oc3ccc(NC(=O)C4(NC(=O)c5ccc(F)cc5)CC4)cc3F)c2cc1Oc1ccc(N)cc1F` , same question. 95

Repeat with `COc1cc2nccc(Oc3ccc(NC(=O)C4(NC(=O)c5ccc(F)cc5)CC4)cc3F)c2cc1OC` 100

What do you get for `COc1cc2nccc(Oc3ccc(NC(=O)C4(C(=O)Nc5ccc(F)cc5)CC4)cc3F)c2cc1Oc1ccc(N)cc1F` ? 98

====

molecular target: BMX (Homo sapiens, UniProt P51813); assay: Tyrosine kinase inhibition assay; assay type: biochemical; settings: single concentration 1.0 μM, read-out: percent inhibition
Sequence (P51813 whole entry): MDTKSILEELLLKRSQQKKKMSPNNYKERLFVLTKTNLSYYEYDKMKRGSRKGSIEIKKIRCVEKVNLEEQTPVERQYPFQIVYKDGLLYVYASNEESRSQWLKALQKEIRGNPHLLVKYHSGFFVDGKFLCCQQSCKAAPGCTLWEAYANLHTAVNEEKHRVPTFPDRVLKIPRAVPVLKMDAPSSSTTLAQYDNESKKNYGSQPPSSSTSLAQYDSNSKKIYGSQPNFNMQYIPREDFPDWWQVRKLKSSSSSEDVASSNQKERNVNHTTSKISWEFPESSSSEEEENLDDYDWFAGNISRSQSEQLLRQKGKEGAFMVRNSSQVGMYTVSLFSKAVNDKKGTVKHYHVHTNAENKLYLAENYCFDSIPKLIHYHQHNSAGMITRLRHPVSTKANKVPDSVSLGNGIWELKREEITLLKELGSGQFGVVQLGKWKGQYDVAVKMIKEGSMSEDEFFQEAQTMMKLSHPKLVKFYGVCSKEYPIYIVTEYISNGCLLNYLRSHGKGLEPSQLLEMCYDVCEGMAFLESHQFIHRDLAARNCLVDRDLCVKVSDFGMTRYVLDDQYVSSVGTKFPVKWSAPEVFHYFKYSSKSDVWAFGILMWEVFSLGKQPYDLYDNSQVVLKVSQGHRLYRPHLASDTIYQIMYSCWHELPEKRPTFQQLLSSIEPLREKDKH
Kindly supply the reported inhibition at 1 µM values for the records listed here.
Quote the value and follow it with the unit of measurement.

So what does the record say about inhibition at 1 µM for COc1cc2nccc(Oc3ccc(NC(=O)C4(C(=O)Nc5ccc(F)cc5)CC4)cc3F)c2cc1Oc1ccc(N)cc1F [Cbo-23] ? 42%

Proceed to COc1cc2nccc(Oc3ccc(NC(=O)C4(NC(=O)c5ccc(F)cc5)CC4)cc3F)c2cc1OC [Cbo-02] 22%

Now try COc1cc2nccc(Oc3ccc(NC(=O)C4(NC(=O)c5ccc(F)cc5)CC4)cc3F)c2cc1Oc1ccc(N)cc1F [Cbo-10] . 33%

Item: COc1cc2nccc(Oc3ccc(NC(=O)C4(C(=O)Nc5ccc(F)cc5)CC4)cc3)c2cc1OC [Cabozantinib, reference compound] 36%

COc1cc2nccc(Oc3ccc(NC(=O)C4(NC(=O)c5ccc(F)cc5)CC4)cc3F)c2cc1Oc1c(F)cc(N)cc1F [Cbo-14] , same question. 42%

====

target: DDR2 (Homo sapiens); test: Tyrosine kinase inhibition assay; format: biochemical; conditions: single concentration 1.0 μM, read-out: percent inhibition
Sequence (Q16832 22-855): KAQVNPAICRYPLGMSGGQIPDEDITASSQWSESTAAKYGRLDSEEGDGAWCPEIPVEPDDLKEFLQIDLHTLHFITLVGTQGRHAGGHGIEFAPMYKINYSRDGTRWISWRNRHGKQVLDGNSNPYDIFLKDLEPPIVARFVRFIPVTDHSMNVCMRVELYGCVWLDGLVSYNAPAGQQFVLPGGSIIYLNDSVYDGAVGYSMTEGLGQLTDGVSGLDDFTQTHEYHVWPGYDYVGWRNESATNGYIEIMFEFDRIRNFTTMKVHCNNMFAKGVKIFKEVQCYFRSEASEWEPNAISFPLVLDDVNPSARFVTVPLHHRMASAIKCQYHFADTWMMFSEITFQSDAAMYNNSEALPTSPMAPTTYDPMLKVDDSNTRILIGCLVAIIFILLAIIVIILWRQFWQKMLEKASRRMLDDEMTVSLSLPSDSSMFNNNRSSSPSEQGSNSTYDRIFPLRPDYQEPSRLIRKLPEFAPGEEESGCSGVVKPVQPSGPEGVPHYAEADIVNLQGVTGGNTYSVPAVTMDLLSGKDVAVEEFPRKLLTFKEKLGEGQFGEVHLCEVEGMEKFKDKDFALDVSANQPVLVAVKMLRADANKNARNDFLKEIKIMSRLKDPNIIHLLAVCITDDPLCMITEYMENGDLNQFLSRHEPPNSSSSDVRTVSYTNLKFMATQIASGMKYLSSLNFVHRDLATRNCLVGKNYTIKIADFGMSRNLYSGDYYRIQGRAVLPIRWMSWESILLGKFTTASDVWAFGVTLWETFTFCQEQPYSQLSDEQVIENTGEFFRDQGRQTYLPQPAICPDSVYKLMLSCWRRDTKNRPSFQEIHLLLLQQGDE
OBSERVABLE: inhibition at 1 µM
Record the result as number plus unit.

So what does the record say about inhibition at 1 µM for `COc1cc2nccc(Oc3ccc(NC(=O)C4(NC(=O)c5ccc(F)cc5)CC4)cc3F)c2cc1Oc1c(F)cc(N)cc1F` ? 60%

Continue with `COc1cc2nccc(Oc3ccc(NC(=O)C4(C(=O)Nc5ccc(F)cc5)CC4)cc3F)c2cc1Oc1ccc(N)cc1F` 91%

Try this compound next: `COc1cc2nccc(Oc3ccc(NC(=O)C4(NC(=O)c5ccc(F)cc5)CC4)cc3F)c2cc1OC` 32%

Also COc1cc2nccc(Oc3ccc(NC(=O)C4(C(=O)Nc5ccc(F)cc5)CC4)cc3)c2cc1OC [Cabozantinib, reference compound] , if possible. 100%

Please give the result for `COc1cc2nccc(Oc3ccc(NC(=O)C4(NC(=O)c5ccc(F)cc5)CC4)cc3F)c2cc1Oc1ccc(N)cc1F` too. 51%

====

Reported pIC50 for target or system ROS1 (Homo sapiens), by entry.
Reminder that pIC50 is minus the log10 of a molar concentration.

Consider the compound shown here: CNC(=O)c1cc2c(Oc3ccc(NC(=O)C4(C(=O)Nc5ccc(F)cc5)CC4)cc3)ccnc2cc1OC [Zanzalintinib, reference compound] What is its recorded pIC50? 7.15

// repeat for COc1cc2nccc(Oc3ccc(NC(=O)C4(C(=O)Nc5ccc(F)cc5)CC4)cc3F)c2cc1Oc1ccc(N)cc1F [Cbo-23] and report 8.23

COc1cc2nccc(Oc3ccc(NC(=O)C4(C(=O)Nc5ccc(F)cc5)CC4)cc3)c2cc1OC [Cabozantinib, reference compound] , same question. 7.22

====

target: ERBB4 (HER4) (Homo sapiens, UniProt Q15303); assay: Tyrosine kinase inhibition assay; assay type: biochemical; conditions: single concentration 1.0 μM, read-out: percent inhibition
Sequence (Q15303 26-1308): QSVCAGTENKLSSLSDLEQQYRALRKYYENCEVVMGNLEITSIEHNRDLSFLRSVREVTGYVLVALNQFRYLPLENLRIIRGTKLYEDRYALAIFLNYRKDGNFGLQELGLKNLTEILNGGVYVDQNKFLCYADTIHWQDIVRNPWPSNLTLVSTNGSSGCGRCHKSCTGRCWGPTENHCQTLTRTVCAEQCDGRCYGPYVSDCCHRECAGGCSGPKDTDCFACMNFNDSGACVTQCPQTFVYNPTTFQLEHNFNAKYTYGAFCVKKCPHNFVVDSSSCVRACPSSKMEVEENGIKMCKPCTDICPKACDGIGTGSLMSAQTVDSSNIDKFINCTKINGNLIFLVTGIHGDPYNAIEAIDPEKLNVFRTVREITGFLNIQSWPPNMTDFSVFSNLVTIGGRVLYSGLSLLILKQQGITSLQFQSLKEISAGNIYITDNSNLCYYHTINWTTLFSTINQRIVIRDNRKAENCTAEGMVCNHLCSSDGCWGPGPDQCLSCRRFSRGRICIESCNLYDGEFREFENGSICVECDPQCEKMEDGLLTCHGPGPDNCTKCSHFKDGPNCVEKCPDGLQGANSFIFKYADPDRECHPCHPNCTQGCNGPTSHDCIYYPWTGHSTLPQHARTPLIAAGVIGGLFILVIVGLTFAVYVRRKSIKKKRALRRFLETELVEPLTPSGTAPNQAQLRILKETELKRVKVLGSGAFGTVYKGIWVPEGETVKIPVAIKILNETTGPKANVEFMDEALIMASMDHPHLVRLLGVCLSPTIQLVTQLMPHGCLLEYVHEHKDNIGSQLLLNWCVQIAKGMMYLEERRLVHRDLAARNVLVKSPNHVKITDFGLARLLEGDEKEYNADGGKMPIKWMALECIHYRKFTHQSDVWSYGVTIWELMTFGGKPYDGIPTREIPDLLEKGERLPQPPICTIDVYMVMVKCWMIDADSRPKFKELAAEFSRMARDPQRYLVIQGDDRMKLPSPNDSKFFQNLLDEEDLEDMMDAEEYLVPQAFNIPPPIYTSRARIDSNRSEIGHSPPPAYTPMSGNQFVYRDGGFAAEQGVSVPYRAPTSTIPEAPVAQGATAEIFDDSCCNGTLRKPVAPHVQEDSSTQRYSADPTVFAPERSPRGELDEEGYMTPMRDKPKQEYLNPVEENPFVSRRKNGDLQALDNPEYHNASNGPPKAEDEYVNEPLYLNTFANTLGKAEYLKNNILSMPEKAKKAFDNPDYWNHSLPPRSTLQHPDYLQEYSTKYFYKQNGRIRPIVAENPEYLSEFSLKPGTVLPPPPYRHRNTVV
OBSERVABLE: inhibition at 1 µM
Units required after the number.

Given COc1cc2nccc(Oc3ccc(NC(=O)C4(NC(=O)c5ccc(F)cc5)CC4)cc3F)c2cc1OC [Cbo-02] , state its recorded inhibition at 1 µM. 31%

Another compound to check: COc1cc2nccc(Oc3ccc(NC(=O)C4(NC(=O)c5ccc(F)cc5)CC4)cc3F)c2cc1Oc1c(F)cc(N)cc1F [Cbo-14] 93%

Field entry: COc1cc2nccc(Oc3ccc(NC(=O)C4(NC(=O)c5ccc(F)cc5)CC4)cc3F)c2cc1Oc1ccc(N)cc1F [Cbo-10] 94%

One more compound: COc1cc2nccc(Oc3ccc(NC(=O)C4(C(=O)Nc5ccc(F)cc5)CC4)cc3F)c2cc1Oc1ccc(N)cc1F [Cbo-23] 72%

Subsequent entry: COc1cc2nccc(Oc3ccc(NC(=O)C4(C(=O)Nc5ccc(F)cc5)CC4)cc3)c2cc1OC [Cabozantinib, reference compound] 35%
